# System: A549 cells
# TEST NAME: Cell viability by MTT method in A549 cells
# Assay type: cell-based
# Parameters: concentration or dose not given beside the values
# EXPERIMENTAL SETUP: 72 hours treatment
READOUT: Cell Viability (% inhibition) (A549) (%)

[[record]]
molecule = "Cc1ccc(S(=O)(=O)N[C@@H](CC(C)C)C(=O)Nc2nc(-c3ccc(OC(F)(F)F)cc3)cs2)cc1"
readout = "Cell Viability (% inhibition) (A549)"
unit_spec = "%"
value = 92.97

[[record]]
molecule = "Cc1ccc(S(=O)(=O)N[C@@H](CC(=O)OC(C)(C)C)C(=O)N2CCOCC2)cc1"
readout = "Cell Viability (% inhibition) (A549)"
unit_spec = "%"
value = 20.33

[[record]]
molecule = "Cc1cccc(S(=O)(=O)N[C@@H](Cc2c[nH]c3ccccc23)C(=O)Nc2ccc(N3CCOCC3)cc2)c1"
readout = "Cell Viability (% inhibition) (A549)"
unit_spec = "%"
value = 74.94

[[record]]
molecule = "Cc1ccc(S(=O)(=O)N[C@@H](Cc2c[nH]c3ccc(O)cc23)C(=O)Nc2ccc(N3CCOCC3)cc2)cc1"
readout = "Cell Viability (% inhibition) (A549)"
unit_spec = "%"
value = 20.62

[[record]]
molecule = "Cc1ccc(S(=O)(=O)NCC(=O)N2CCOCC2)cc1"
readout = "Cell Viability (% inhibition) (A549)"
unit_spec = "%"
value = 17.30

[[record]]
molecule = "COc1ccc(-c2csc(NC(=O)[C@H](Cc3c[nH]c4ccccc34)NC(=O)c3ccc(C)cc3)n2)cc1"
readout = "Cell Viability (% inhibition) (A549)"
unit_spec = "%"
value = 40.83

[[record]]
molecule = "Cc1ccc(S(=O)(=O)N[C@@H](CC(C)C)C(=O)Nc2ccc(N3CCC(C)CC3)cc2)cc1"
readout = "Cell Viability (% inhibition) (A549)"
unit_spec = "%"
value = 24.89

[[record]]
molecule = "Cc1ccc(S(=O)(=O)N[C@@H](CCC(=O)Nc2ccc(F)cc2)C(=O)Nc2ccc(N3CCOCC3)cc2)cc1"
readout = "Cell Viability (% inhibition) (A549)"
unit_spec = "%"
value = 10.8

[[record]]
molecule = "Cc1ccc(S(=O)(=O)N[C@@H](C)C(=O)Nc2ccc(N3CCOCC3)cc2)cc1"
readout = "Cell Viability (% inhibition) (A549)"
unit_spec = "%"
value = 14.05

[[record]]
molecule = "CC(C)C[C@H](NS(=O)(=O)c1cccc(N)c1)C(=O)N1CCOCC1"
readout = "Cell Viability (% inhibition) (A549)"
unit_spec = "%"
value = 24.57

[[record]]
molecule = "Cc1ccc(S(=O)(=O)N[C@H](Cn2c(=O)c(=O)[nH]c3ccccc32)C(=O)Nc2ccc(N3CCOCC3)cc2)cc1"
readout = "Cell Viability (% inhibition) (A549)"
unit_spec = "%"
value = 9.99

[[record]]
molecule = "Cc1ccc(S(=O)(=O)N[C@@H](Cc2ccccc2)C(=O)Nc2ccc(N3CCOCC3)cc2)cc1"
readout = "Cell Viability (% inhibition) (A549)"
unit_spec = "%"
value = 45.68

[[record]]
molecule = "COc1ccc(NC(=O)NNC(=O)[C@H](Cc2c[nH]c3ccccc23)NS(=O)(=O)c2ccc(C)cc2)cc1"
readout = "Cell Viability (% inhibition) (A549)"
unit_spec = "%"
value = 42.25

[[record]]
molecule = "CC(C)C[C@H](NC(=O)c1ccc(C(C)(C)C)cc1)C(=O)Nc1ccc(N2CCOCC2)cc1"
readout = "Cell Viability (% inhibition) (A549)"
unit_spec = "%"
value = 90.03

[[record]]
molecule = "COc1ccc(C(=O)NNC(=O)[C@H](Cc2c[nH]c3ccccc23)NS(=O)(=O)c2ccc(C)cc2)cc1 [Compound 191]"
readout = "Cell Viability (% inhibition) (A549)"
unit_spec = "%"
value = 49.17


Where these numbers come from: patent US20220204497A1
